# IC50 values compiled below
target: human TLR8 (Homo sapiens); test: TLR8 inhibition reporter assay (HEK-Blue SEAP); conditions: HEK-Blue cells overexpressing human TLR8, stimulated with R848 15.9 μM, 22 hour incubation

compound	IC50, nM
COc1cc(-c2ccc3c(C(=O)NC4CCNCC4)c[nH]c3c2)cn2ncnc12 [Example 197]	2360
Cc1cc(-c2cc3[nH]nc(C4CCC(NC5CC5)CC4)c3cc2C(C)C)cn2ncnc12 (single isomer, unassigned) [Example 118]	0.1
CCc1cc2c(C3CCC(N(C)C)CC3)n[nH]c2cc1-c1cc(C)c2ncnn2c1 (single isomer, unassigned) [Example 94]	0.5
Cc1cc(-c2cc3[nH]nc(C4CCC(NCCS(C)(=O)=O)CC4)c3cc2C(C)C)cn2ncnc12 (centres unmarked) [Example 126]	0.1
Cc1cc(-c2ccc3c(C(=O)NC4CCNCC4)c[nH]c3c2)cn2ncnc12 [Example 198]	590
Cc1cc(-c2cc(C)c3ncnn3c2)cc2[nH]nc(C3CCC(N(C)C)CC3)c12 (centres unmarked) [Example 81]	5.3
Cc1cc(-c2cc3[nH]nc(C4CCC(N5CCC5)CC4)c3cc2C(C)C)cn2ncnc12 (single isomer, unassigned) [Example 138]	0.5
Cc1cc(-c2cc3[nH]nc(C4CCNCC4)c3cc2C(C)C)cn2ncnc12 [Example 102]	0.4
Cc1cc2c(C3CCCNC3)n[nH]c2cc1-c1cn2ncnc2c(C)c1C (centres unmarked) [Example 48]	2.5
CCc1cc2c(C3CCC(NCC(=O)N(C)C)CC3)n[nH]c2cc1-c1cc(C)c2ncnn2c1 (centres unmarked) [Example 96]	0.2
Cc1cc(-c2cc(C)c3ncnn3c2)cc2[nH]cc(C3CCNCC3)c12 [Example 2]	19.9

====

molecular target: human TLR8 (Homo sapiens, UniProt Q9NR97); experiment: TLR8 inhibition reporter assay (HEK-Blue SEAP); conditions: HEK-Blue cells overexpressing human TLR8, stimulated with R848 15.9 μM, 22 hour incubation
Sequence (Q9NR97 27-1041): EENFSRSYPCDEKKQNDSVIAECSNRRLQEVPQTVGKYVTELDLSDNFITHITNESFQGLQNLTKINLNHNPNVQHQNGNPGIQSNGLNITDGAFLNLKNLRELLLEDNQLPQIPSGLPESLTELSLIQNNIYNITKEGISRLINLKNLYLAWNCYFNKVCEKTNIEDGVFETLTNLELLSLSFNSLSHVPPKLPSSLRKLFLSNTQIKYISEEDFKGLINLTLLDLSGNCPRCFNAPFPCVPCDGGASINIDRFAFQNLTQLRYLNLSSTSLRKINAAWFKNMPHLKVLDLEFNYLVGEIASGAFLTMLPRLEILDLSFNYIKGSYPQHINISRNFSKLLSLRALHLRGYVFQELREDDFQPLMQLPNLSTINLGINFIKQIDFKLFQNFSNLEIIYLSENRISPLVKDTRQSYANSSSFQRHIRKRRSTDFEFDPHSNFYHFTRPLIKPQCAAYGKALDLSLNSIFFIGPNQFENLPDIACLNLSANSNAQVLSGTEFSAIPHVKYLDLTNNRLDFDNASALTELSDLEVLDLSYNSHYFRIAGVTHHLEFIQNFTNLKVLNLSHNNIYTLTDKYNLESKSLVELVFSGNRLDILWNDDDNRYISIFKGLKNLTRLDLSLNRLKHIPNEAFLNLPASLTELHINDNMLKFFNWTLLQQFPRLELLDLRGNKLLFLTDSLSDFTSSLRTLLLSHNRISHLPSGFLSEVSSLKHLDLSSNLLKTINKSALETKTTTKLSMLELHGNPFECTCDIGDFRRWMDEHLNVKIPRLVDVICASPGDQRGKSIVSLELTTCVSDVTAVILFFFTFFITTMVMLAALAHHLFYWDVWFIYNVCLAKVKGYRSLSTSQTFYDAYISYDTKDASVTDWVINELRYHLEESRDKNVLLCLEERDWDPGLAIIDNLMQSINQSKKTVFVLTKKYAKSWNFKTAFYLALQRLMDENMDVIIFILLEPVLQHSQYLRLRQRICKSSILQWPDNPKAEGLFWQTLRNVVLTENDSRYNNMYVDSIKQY
Below, each entry is listed alongside its reported IC50.
measurementName: IC50 (nM)

compound	resultNumber
Cc1cc(-c2cc3[nH]nc(C4CCC(N5CC(C)(O)C5)CC4)c3cc2C(C)C)cn2ncnc12 (stereo not shown) [Example 153]	0.6
Cc1cc(-c2cc(C)c3ncnn3c2)cc2[nH]nc(OC3CCC(N(C)C)CC3)c12 (single isomer, unassigned) [Example 180]	2.3
CCc1cc2c(C3CCN(C(=O)CN(C)C)CC3)n[nH]c2cc1-c1cc(C)c2ncnn2c1 [Example 87]	0.6
Cc1cc2c(OC3CCN(C)CC3)n[nH]c2cc1-c1cc(C)c2ncnn2c1 [Example 171]	0.1

====

molecular target: human TLR7 (Homo sapiens, UniProt Q9NYK1); test: TLR7 inhibition reporter assay (HEK-Blue SEAP); settings: HEK-Blue cells overexpressing human TLR7, stimulated with gardiquimod 7.5 μM, 22 hour incubation
Sequence (Q9NYK1 27-1049): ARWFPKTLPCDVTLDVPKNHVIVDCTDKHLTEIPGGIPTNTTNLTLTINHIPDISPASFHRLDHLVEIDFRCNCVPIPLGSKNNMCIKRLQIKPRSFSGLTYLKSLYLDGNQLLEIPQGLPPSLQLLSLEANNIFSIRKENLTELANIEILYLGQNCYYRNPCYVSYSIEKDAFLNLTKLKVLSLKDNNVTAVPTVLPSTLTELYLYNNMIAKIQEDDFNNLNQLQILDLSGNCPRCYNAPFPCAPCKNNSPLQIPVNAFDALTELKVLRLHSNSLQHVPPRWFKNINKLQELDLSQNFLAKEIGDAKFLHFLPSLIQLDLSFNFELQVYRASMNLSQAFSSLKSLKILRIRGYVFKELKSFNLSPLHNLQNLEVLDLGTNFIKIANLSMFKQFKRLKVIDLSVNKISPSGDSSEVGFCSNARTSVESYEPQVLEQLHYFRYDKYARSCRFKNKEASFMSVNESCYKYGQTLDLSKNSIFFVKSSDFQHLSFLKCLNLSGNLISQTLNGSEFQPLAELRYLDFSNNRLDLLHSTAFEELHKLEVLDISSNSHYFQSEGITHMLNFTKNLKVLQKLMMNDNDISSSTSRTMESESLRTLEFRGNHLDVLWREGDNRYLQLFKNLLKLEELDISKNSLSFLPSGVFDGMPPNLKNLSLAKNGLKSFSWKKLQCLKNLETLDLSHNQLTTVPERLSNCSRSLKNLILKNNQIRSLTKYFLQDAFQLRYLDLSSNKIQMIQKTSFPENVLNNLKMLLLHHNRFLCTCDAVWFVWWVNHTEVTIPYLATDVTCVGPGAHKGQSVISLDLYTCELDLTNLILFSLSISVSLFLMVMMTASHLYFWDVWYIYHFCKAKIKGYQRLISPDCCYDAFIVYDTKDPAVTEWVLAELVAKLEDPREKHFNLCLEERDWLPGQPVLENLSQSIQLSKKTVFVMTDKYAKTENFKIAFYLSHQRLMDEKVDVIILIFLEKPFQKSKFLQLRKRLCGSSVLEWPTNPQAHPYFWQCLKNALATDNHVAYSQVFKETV
Threshold 5 nM: IC50 strictly smaller gives t, otherwise f.

molecule	answerLabel
COc1cc(-c2cc3[nH]nc(C4CCC(N(C)C)CC4)c3cc2C(C)C)cn2ncnc12 (single isomer, unassigned) [Example 141]	f
Cc1cc(-c2cc3[nH]nc(C4CCC(N5CC(F)C5)CC4)c3cc2C(C)C)cn2ncnc12 (centres unmarked) [Example 151]	t
Cc1cc(-c2cc3[nH]nc(C4CCN(C5COC5)CC4)c3cc2C(C)C)cn2ncnc12	f
COc1cc(-c2cc3[nH]nc(C4CCN(C(=O)CN(C)C)CC4)c3cc2C(C)C)cn2ncnc12	t
Cc1cc(-c2cc(C)c3ncnn3c2)cc2[nH]nc(C3CCN(C4CCOCC4)CC3)c12	f
Cc1cc2c(OC3CCNCC3)n[nH]c2cc1-c1cc(C)c2ncnn2c1	f
Cc1cc(-c2cc3[nH]nc(C4CCC(N5CC6(CCOC6)C5)CC4)c3cc2C(C)C)cn2ncnc12 (centres unmarked) [Example 158]	t
Cc1cc(-c2cc3[nH]nc(C4CCC(NC5CC5)CC4)c3cc2C(C)C)cn2ncnc12 (single isomer, unassigned) [Example 119]	t

====

target: UniProtKB Q9NR97; assay: TLR8 inhibition reporter assay (HEK-Blue SEAP); settings: HEK-Blue cells overexpressing human TLR8, stimulated with R848 15.9 μM, 22 hour incubation

molecule	measurementUnit	IC50
Cc1cc(-c2cc3[nH]nc(C4CCC(N5CC(F)(F)C5)CC4)c3cc2C(C)C)cn2ncnc12 (single isomer, unassigned) [Example 134]	nM	0.2
Cc1cc(-c2cc3[nH]nc(C4CCC(NCCS(C)(=O)=O)CC4)c3cc2C(C)C)cn2ncnc12 (stereo not drawn) [Example 127]	nM	0.1
Cc1cc(-c2ccc3c(C4CCC(N(C)C)CC4)c[nH]c3c2)cn2ncnc12 (single isomer, unassigned) [Example 15]	nM	25.9
CCc1cc2c(C3CCC(NCC(=O)N(C)C)CC3)n[nH]c2cc1-c1cc(C)c2ncnn2c1 (stereo not drawn) [Example 95]	nM	0.2
CCc1cc2c(C3CCN(CC(C)(C)O)CC3)n[nH]c2cc1-c1cc(C)c2ncnn2c1	nM	0.2
Cc1cc(-c2cc(C)c3ncnn3c2)cc2[nH]nc(C3CCCN(C(=O)CN(C)C)C3)c12 (stereo not drawn)	nM	13.5
Cc1cc(-c2cc3[nH]nc(C4CCC(N5CC(C)(O)C5)CC4)c3cc2C(C)C)cn2ncnc12 (stereo not drawn) [Example 154]	nM	0.2
Cc1cc2c(C3CCNCC3)c[nH]c2cc1-c1cc(C)c2ncnn2c1	nM	3.9
Cc1cc(-c2cc3[nH]nc(C4CCC(N5CCC(C)(O)C5)CC4)c3cc2C(C)C)cn2ncnc12 (single isomer, unassigned)	nM	0.2
Cc1cc2c(C3CCC(NCCS(C)(=O)=O)CC3)n[nH]c2cc1-c1cc(C)c2ncnn2c1 (stereo not drawn) [Example 30]	nM	0.4
Cc1cc2c(C3CCCN(C(=O)CN(C)C)C3)n[nH]c2cc1-c1cc(C)c2ncnn2c1 (stereo not drawn) [Example 54]	nM	6.4
CCc1cc2c(C3CCC(NCCS(C)(=O)=O)CC3)n[nH]c2cc1-c1cc(C)c2ncnn2c1 (single isomer, unassigned) [Example 100]	nM	0.2
Cc1cc(-c2cc3[nH]nc(C4CCC(NCC(=O)N(C)C)CC4)c3cc2C(C)C)cn2ncnc12 (single isomer, unassigned)	nM	0.3
Cc1cc(-c2ccc3c(C4CCNCC4)c[nH]c3c2)cn2ncnc12	nM	31.2
Cc1cc2c(C3CCN(CC(N)=O)CC3)n[nH]c2cc1-c1cc(C)c2ncnn2c1	nM	1.4

====

Target: human TLR9 (Homo sapiens)
Sequence (Q9NR96 26-1032): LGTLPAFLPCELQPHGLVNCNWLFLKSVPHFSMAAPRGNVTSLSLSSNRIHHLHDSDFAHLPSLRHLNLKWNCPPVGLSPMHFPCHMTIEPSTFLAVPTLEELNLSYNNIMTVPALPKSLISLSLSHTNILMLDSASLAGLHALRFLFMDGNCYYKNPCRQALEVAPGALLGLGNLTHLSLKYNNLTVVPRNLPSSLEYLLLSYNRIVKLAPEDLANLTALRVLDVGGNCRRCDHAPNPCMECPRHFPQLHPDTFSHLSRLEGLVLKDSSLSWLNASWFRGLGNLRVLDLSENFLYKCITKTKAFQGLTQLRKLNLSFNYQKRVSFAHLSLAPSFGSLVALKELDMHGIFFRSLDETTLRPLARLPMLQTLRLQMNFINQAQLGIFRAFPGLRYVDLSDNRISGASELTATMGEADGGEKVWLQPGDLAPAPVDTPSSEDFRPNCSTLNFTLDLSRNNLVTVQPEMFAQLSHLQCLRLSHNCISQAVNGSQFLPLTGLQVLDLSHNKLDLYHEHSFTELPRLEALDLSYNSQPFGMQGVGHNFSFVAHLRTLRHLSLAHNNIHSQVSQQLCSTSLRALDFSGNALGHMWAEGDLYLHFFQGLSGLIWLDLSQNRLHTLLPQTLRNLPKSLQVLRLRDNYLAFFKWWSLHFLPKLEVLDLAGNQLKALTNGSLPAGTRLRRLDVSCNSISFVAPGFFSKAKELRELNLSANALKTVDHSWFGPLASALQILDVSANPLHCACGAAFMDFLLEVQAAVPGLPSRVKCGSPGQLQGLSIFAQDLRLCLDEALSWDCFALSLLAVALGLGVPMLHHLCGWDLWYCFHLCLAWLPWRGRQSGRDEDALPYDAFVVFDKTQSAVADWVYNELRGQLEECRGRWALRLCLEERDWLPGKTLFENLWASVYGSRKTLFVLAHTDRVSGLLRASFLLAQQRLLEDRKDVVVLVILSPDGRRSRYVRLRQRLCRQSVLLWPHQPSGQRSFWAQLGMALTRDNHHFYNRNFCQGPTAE
Test: TLR9 inhibition reporter assay (HEK-Blue SEAP)
Conditions: HEK-Blue cells overexpressing human TLR9, stimulated with ODN2006 5 nM, 22 hour incubation
Source text: TLR7/8/9 Inhibition Reporter Assays HEK-Blue™-cells (Invivogen) overexpressing human TLR7, TLR8 or TLR9 receptors were used for screening inhibitors of these receptors using an inducible SEAP (secreted embryonic alkaline phosphatase) reporter gene under the control of the IFN-β minimal promoter fused to five NF-κB and AP-1-binding sites. […]
Each record's class is read off its IC50 using these ranges: 1 = under 3 µM, 2 = from 3 µM up to 8 µM, 3 = 8 µM and over

molecule	targetOrTestSystem	answerLabel
Cc1cc2c(C3CCN(CCC#N)CC3)n[nH]c2cc1-c1cc(C)c2ncnn2c1	human TLR9 (Homo sapiens)	3
Cc1cc2c(C3CCC(N(C)C4COC4)CC3)n[nH]c2cc1-c1cc(C)c2ncnn2c1 (single isomer, unassigned) [Example 33]	human TLR9 (Homo sapiens)	3
CCc1cc2c(C3CCC(NCC(=O)N(C)C)CC3)n[nH]c2cc1-c1cc(C)c2ncnn2c1 (centres unmarked) [Example 96]	human TLR9 (Homo sapiens)	3
CCc1cc(-c2cc(C)c3ncnn3c2)cc2[nH]nc(OC3CCC(N(C)C)CC3)c12 (single isomer, unassigned) [Example 168]	human TLR9 (Homo sapiens)	1
Cc1cc(-c2cc3[nH]nc(C4CCC(NCCS(C)(=O)=O)CC4)c3cc2C(C)C)cn2ncnc12 (centres unmarked) [Example 126]	human TLR9 (Homo sapiens)	3
CCc1cc(-c2cc(C)c3ncnn3c2)cc2[nH]nc(C3CCNCC3)c12	human TLR9 (Homo sapiens)	1
Cc1cc2c(CC3CCNCC3)n[nH]c2cc1-c1cc(C)c2ncnn2c1	human TLR9 (Homo sapiens)	1
Cc1cc(-c2cc(C)c3ncnn3c2)cc2[nH]nc(C3CCCN(CC(=O)N(C)C)C3)c12 (centres unmarked)	human TLR9 (Homo sapiens)	2
Cc1cc(-c2cc3[nH]nc(C4CCCNC4)c3cc2C)cc(C)n1 (centres unmarked)	human TLR9 (Homo sapiens)	1
Cc1cc(-c2cc3[nH]nc(C4CCC(N5CCCC5)CC4)c3cc2C(C)C)cn2ncnc12 (single isomer, unassigned) [Example 130]	human TLR9 (Homo sapiens)	2
COC1CN(C2CCC(c3n[nH]c4cc(-c5cc(C)c6ncnn6c5)c(C(C)C)cc34)CC2)C1 (centres unmarked) [Example 145]	human TLR9 (Homo sapiens)	3
CCCN1CCC(c2n[nH]c3cc(-c4cc(C)c5ncnn5c4)c(C)cc23)CC1	human TLR9 (Homo sapiens)	2
Cc1cc(-c2cc3[nH]nc(C4CCC(N5CCCC5)CC4)c3cc2C(C)C)cn2ncnc12 (single isomer, unassigned) [Example 131]	human TLR9 (Homo sapiens)	2
Cc1cc2c(C3CCC(NC4COC4)CC3)n[nH]c2cc1-c1cc(C)c2ncnn2c1 (single isomer, unassigned) [Example 34]	human TLR9 (Homo sapiens)	2
Cc1cc2c(C3CCNCC3)n[nH]c2cc1-c1cc(C)c2ncnn2c1	human TLR9 (Homo sapiens)	1
Cc1cc(-c2cc3[nH]nc(C4CCC(N5CCOCC5)CC4)c3cc2C(C)C)cn2ncnc12 (centres unmarked) [Example 132]	human TLR9 (Homo sapiens)	2
Cc1cc(-c2cc(C)c3ncnn3c2)cc2[nH]nc(OC3CCN(C(=O)CN(C)C)CC3)c12	human TLR9 (Homo sapiens)	1
CCc1cc2c(C3CCN(CC(N)=O)CC3)n[nH]c2cc1-c1cc(C)c2ncnn2c1	human TLR9 (Homo sapiens)	3
Cc1cc(-c2cc(C)c3ncnn3c2)cc2[nH]nc(C3CCCN(C(=O)CN(C)C)C3)c12 (centres unmarked)	human TLR9 (Homo sapiens)	1
Cc1cc2c(C3CCCN(CC(=O)N(C)C)C3)n[nH]c2cc1-c1cc(C)c2ncnn2c1 (centres unmarked) [Example 53]	human TLR9 (Homo sapiens)	2
Cc1cc(-c2ccc3c(C4CCC(N(C)C)CC4)c[nH]c3c2)cn2ncnc12 (single isomer, unassigned) [Example 15]	human TLR9 (Homo sapiens)	1
CCc1cc2c(C3CCN(C(=O)CCN(C)C)CC3)n[nH]c2cc1-c1cc(C)c2ncnn2c1	human TLR9 (Homo sapiens)	3
COc1cc(-c2cc3[nH]nc(C4CCC(N(C)C)CC4)c3cc2C(C)C)cn2ncnc12 (single isomer, unassigned) [Example 141]	human TLR9 (Homo sapiens)	2
Cc1cc(-c2cc3[nH]nc(C4CCC(N(C)C)CC4)c3cc2C(C)C)cn2ncnc12 (centres unmarked) [Example 115]	human TLR9 (Homo sapiens)	2
Cc1cc(-c2cc3[nH]nc(C4CCC(NCC(=O)N(C)C)CC4)c3cc2C(C)C)cn2ncnc12 (single isomer, unassigned) [Example 124]	human TLR9 (Homo sapiens)	3
Cc1cc2c(C3CCC(NC4CC4)CC3)n[nH]c2cc1-c1cc(C)c2ncnn2c1 (centres unmarked) [Example 37]	human TLR9 (Homo sapiens)	2
COc1cc(-c2cc(C)c3c(OC4CCC(N(C)C)CC4)n[nH]c3c2)cn2ncnc12 (single isomer, unassigned) [Example 183]	human TLR9 (Homo sapiens)	1

Values compiled from patent US12172995B2.
